Measured relative activity, listed per entry for reference.
Tested on: Aspergillus niger
method_description: Inhibition of CYP450-mediated tangeretin demethylation in Aspergillus niger ATCC 9142 assessed as relative activity at 0.5 mM
attribute_measured: relative activity (%)

> print(dat)
                                   molecule  value.measured
1   CCCC(C(=O)OCCN(CC)CC)(c1ccccc1)c1ccccc1               0
2              CC(C)(C(=O)c1cccnc1)c1cccnc1              40
3  Clc1ccc(COC(Cn2ccnc2)c2ccc(Cl)cc2Cl)c(Cl)c1 (centres undefined)              10
4                    CC1=CC(=O)c2ccccc2C1=O               0
